- experimental_system: 5-HT transporter (Rattus norvegicus, UniProt P31652)
- Construct: Rat brain cortex was homogenized using Polytron; from tissue; host or cells: rat brain cortex membranes
- Sequence (P31652 whole entry): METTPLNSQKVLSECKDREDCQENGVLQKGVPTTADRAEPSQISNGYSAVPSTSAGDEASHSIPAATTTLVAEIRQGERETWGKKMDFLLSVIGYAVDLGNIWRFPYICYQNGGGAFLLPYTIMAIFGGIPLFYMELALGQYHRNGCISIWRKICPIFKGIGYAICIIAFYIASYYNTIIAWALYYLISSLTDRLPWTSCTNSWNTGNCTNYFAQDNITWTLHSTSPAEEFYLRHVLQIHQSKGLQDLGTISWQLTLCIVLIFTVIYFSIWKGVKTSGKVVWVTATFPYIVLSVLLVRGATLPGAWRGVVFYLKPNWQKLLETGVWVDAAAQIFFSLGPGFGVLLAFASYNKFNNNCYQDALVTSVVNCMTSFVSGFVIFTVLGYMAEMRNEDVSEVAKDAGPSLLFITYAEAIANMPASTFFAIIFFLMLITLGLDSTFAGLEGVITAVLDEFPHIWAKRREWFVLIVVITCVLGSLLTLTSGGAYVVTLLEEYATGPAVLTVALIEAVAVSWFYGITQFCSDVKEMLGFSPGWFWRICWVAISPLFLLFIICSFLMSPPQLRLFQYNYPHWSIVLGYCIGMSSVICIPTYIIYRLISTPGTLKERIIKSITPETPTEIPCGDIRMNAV
- measurement_notes: 5-HT transporter binding test
- setup_conditions: rat brain cortex membrane, (3H) paroxetine 0.2 nmol/L; read-out: 5-HT transporter binding Ki value
Where a name gives a salt, the structure may show the parent alone.
measure_name: Ki (pM)
Field format: number, assumed pM, no unit text.

| compound | Ki / pM |
| --- | --- |
| CC(C)c1nnc(-c2cc3c(OC[C@@H](O)CN4CCC(c5ccc6c(c5)OCO6)CC4)cccc3o2)o1 [Example 138, hydrochloride] | 1600 |
| CON(C)C(=O)c1cc2c(OC[C@@H](O)CN3CCC(c4ccc5ccccc5c4)CC3)cccc2o1 | 1100 |
| OCc1nnc(-c2cc3c(OC[C@@H](O)CN4CCC(c5ccc(Cl)c(Cl)c5)CC4)cccc3o2)o1 | 180 |

Record summary for Cc1nnc(-c2cc3c(OC[C@@H](O)CN4CCC(c5ccc(Cl)c(Cl)c5)CC4)cccc3o2)o1 [Example 88, hydrate] : reported Ki = 320

====

Where a name gives a salt, the structure may show the parent alone.
// values below are reported melting point

| compound | melting point |
| --- | --- |
| Cc1nnc(-c2cc3c(OC[C@@H](O)CN4CCC(c5ccc(Cl)c(C)c5)CC4)cccc3o2)o1.Cl | 184 to 186 °C |
| Cc1nnc(-c2cc3c(OC[C@@H](O)CN4CC=C(c5ccc6occc6c5)CC4)cccc3o2)o1 [Example 238] | 168 to 170 °C |
| Cc1nnc(-c2cc3c(OC[C@@H](O)CN4CC=C(c5ccc6ccoc6c5)CC4)cccc3o2)o1.Cl | 135 to 138 °C |

Now consider a different compound.
Record summary for Cc1nnc(-c2cc3c(OC[C@@H](O)CN4CCC(c5ccc(C)c(Cl)c5)CC4)cccc3o2)o1 (as salt: hydrochloride) : reported melting point = 188 to 190 °C

====

Counter-ions that a name gives are not always drawn.
measure_name: melting point

Record summary for COc1ccc(C2CCN(C[C@H](O)COc3cccc4oc(-c5nnc(C)o5)cc34)CC2)cc1Cl.Cl : reported melting point = 218 to 220 °C

Record summary for Cc1nnc(-c2cc3c(OC[C@@H](O)CN4CCC(c5ccc(Cl)c(C(F)(F)F)c5)CC4)cccc3o2)o1 (as salt: hydrochloride) [Example 234] : reported melting point = 222 to 224 °C

Record summary for C=C(C)c1nnc(-c2cc3c(OC[C@@H](O)CN4CCC(c5ccc6c(c5)OCO6)CC4)cccc3o2)o1.Cl : reported melting point = 128 to 130 °C

Record summary for Cc1nnc(-c2cc3c(OC[C@@H](O)CN4CCC(c5ccc(Cl)c(F)c5)CC4)cccc3o2)o1.Cl : reported melting point = 139 to 141 °C

Record summary for Cc1nnc(-c2cc3c(OC[C@@H](O)CN4CCC(c5ccc6c(c5)CCCS6)CC4)cccc3o2)o1 (as salt: hydrochloride) : reported melting point = 223 to 225 °C

====

- experimental_system: 5-HT transporter (Rattus norvegicus, UniProt P31652)
- Construct: Rat brain cortex was homogenized using Polytron; from tissue; host or cells: rat brain cortex membranes
- measurement_notes: 5-HT transporter binding test
measure_name: Ki (nM)
Field format: number, assumed nM, no unit text.

Record summary for O[C@H](COc1cccc2[nH]ccc12)CN1CCC(O)(c2ccc3ccccc3c2)CC1 [compound for reference, reference compound] : reported Ki = 55
